Assay: Aqueous solubility, tonicity salt, dissolution and taste observations on pirfenidone formulations
Format: physicochemical
Details: aqueous solution, aqueous buffer; across a pH range of about 4.0 to about 8.0
Procedure: However, at this (and lower) concentration it was determined that salt addition was required to improve acute tolerability upon inhalation of a nebulized solution (otherwise a hypotonic solution). To address tonicity, NaCl or MgCl2 were added. […] This effect was not observed at ˜pH 8.

compound: Cc1ccc(=O)n(-c2ccccc2)c1 [pirfenidone, 5-methyl-1-phenyl-2-(1H)-pyridone]
solubility: ~17 mg/mL

* * *

Assay: Extended-duration intratracheal and oral pharmacokinetic study
Format: in vivo, Wistar rats
Conditions: Wistar, rat, plasma, inhaled or intranasal; intratracheal aerosol 10 mg/kg

compound: Cc1ccc(=O)n(-c2ccccc2)c1 [pirfenidone, 5-methyl-1-phenyl-2-(1H)-pyridone]
AUC(0-t) / ng·h/mL: 14600

These entries and their values trace back to patent US10028966B2.
